# System: Escherichia coli
# ASSAY_OVERVIEW: Antibacterial activity against Escherichia coli C600Rif containing pIP1206 plasmid by Etest
# Format: functional
METRIC: MIC (µg/mL)

MOLECULE	VALUE
CCn1cc(C(=O)O)c(=O)c2ccc(C)nc21 [NALIDIXIC ACID]	2
CCn1cc(C(=O)O)c(=O)c2cc(F)c(N3CCN(C)CC3)cc21 [PEFLOXACIN]	0.094
COc1c(N2CCNC(C)C2)c(F)cc2c(=O)c(C(=O)O)cn(C3CC3)c12 (configuration not stated) [GATIFLOXACIN]	0.032
CC[n+]1c(-c2ccccc2)c2cc(N)ccc2c2ccc(N)cc21.[Br-] [HOMIDIUM BROMIDE]	128
COc1c(N2C[C@@H]3CCCN[C@@H]3C2)c(F)cc2c(=O)c(C(=O)O)cn(C3CC3)c12 [MOXIFLOXACIN]	0.094
C[C@H]1COc2c(N3CCN(C)CC3)c(F)cc3c(=O)c(C(=O)O)cn1c23.C[C@H]1COc2c(N3CCN(C)CC3)c(F)cc3c(=O)c(C(=O)O)cn1c23.O [LEVOFLOXACIN]	0.032
CCn1cc(C(=O)O)c(=O)c2cc(F)c(N3CCNCC3)cc21 [NORFLOXACIN]	1.5

###

Measured MIC, listed per entry for reference.
# Test system: Escherichia coli
# ASSAY_OVERVIEW: Antibacterial activity against Escherichia coli TOP10 containing pIP1206 plasmid in presence of 40 ug/ml efflux pump inhibitor 1-(1-naphthylmethyl)-piperazine by Etest
# Type: functional
METRIC: MIC (µg/mL)

> print(dat)
                                   compound  metric  value
1  CCn1cc(C(=O)O)c(=O)c2cc(F)c(N3CCNCC3)cc21 [NORFLOXACIN]     MIC  0.016
2  CC[n+]1c(-c2ccccc2)c2cc(N)ccc2c2ccc(N)cc21.[Br-] [HOMIDIUM BROMIDE]     MIC     64
3  CCn1cc(C(=O)O)c(=O)c2ccc(C)nc21 [NALIDIXIC ACID]     MIC      1
4  COc1c(N2C[C@@H]3CCCN[C@@H]3C2)c(F)cc2c(=O)c(C(=O)O)cn(C3CC3)c12 [MOXIFLOXACIN]     MIC  0.002
5  COc1c(N2CCNC(C)C2)c(F)cc2c(=O)c(C(=O)O)cn(C3CC3)c12 (stereo not given) [GATIFLOXACIN]     MIC  0.002

###

# System: Escherichia coli
# ASSAY_OVERVIEW: Antibacterial activity against Escherichia coli TOP10 containing pIP1206 plasmid by Etest
# Type: functional
Measured MIC, listed per entry for reference.
METRIC: MIC (µg/mL)

> print(dat)
                                   molecule  metric  value
1  COc1c(N2C[C@@H]3CCCN[C@@H]3C2)c(F)cc2c(=O)c(C(=O)O)cn(C3CC3)c12     MIC  0.006
2           CCn1cc(C(=O)O)c(=O)c2ccc(C)nc21     MIC    1.5
3  COc1c(N2CCNC(C)C2)c(F)cc2c(=O)c(C(=O)O)cn(C3CC3)c12 (stereo not drawn)     MIC  0.003
4  CCn1cc(C(=O)O)c(=O)c2cc(F)c(N3CCNCC3)cc21     MIC   0.38
5  O=C(O)c1cn(C2CC2)c2cc(N3CCNCC3)c(F)cc2c1=O     MIC  0.023
6  CC[n+]1c(-c2ccccc2)c2cc(N)ccc2c2ccc(N)cc21.[Br-] [HOMIDIUM BROMIDE]     MIC    128
7  CCn1cc(C(=O)O)c(=O)c2cc(F)c(N3CCN(C)CC3)cc21     MIC  0.023
8  C[C@H]1COc2c(N3CCN(C)CC3)c(F)cc3c(=O)c(C(=O)O)cn1c23.C[C@H]1COc2c(N3CCN(C)CC3)c(F)cc3c(=O)c(C(=O)O)cn1c23.O     MIC  0.006

###

Measured MIC, listed per entry for reference.
# System: Escherichia coli
# ASSAY_OVERVIEW: Antibacterial activity against Escherichia coli 1540 isolate by […]
# Assay type: functional
METRIC: MIC

SMILES	SYSTEM_TESTED	VALUE
CN(C)[C@@H]1C(O)=C(C(N)=O)C(=O)[C@@]2(O)C(O)=C3C(=O)c4c(O)cccc4[C@@](C)(O)[C@H]3C[C@@H]12	Escherichia coli	> 256 µg/mL
NCC[C@H](O)C(=O)N[C@@H]1C[C@H](N)[C@@H](O[C@H]2O[C@H](CN)[C@@H](O)[C@H](O)[C@H]2O)[C@H](O)[C@H]1O[C@H]1O[C@H](CO)[C@@H](O)[C@H](N)[C@H]1O	Escherichia coli	> 512 µg/mL
CCN[C@@H]1C[C@H](N)[C@@H](O[C@H]2OC(CN)=CC[C@H]2N)[C@H](O)[C@H]1O[C@H]1OC[C@](C)(O)[C@H](NC)[C@H]1O	Escherichia coli	> 512 µg/mL

###

Measured MIC, listed per entry for reference.
# Test system: Escherichia coli
# ASSAY_OVERVIEW: Antibacterial activity against Escherichia coli TOP10 in presence of 40 ug/ml efflux pump inhibitor 1-(1-naphthylmethyl)-piperazine by Etest
# Type: functional
METRIC: MIC

> print(dat)
                                   compound  metric        value
1  CCn1cc(C(=O)O)c(=O)c2ccc(C)nc21 [NALIDIXIC ACID]     MIC      1 µg/mL
2  COc1c(N2CCNC(C)C2)c(F)cc2c(=O)c(C(=O)O)cn(C3CC3)c12 (stereo not given) [GATIFLOXACIN]     MIC  0.002 µg/mL
3  COc1c(N2C[C@@H]3CCCN[C@@H]3C2)c(F)cc2c(=O)c(C(=O)O)cn(C3CC3)c12 [MOXIFLOXACIN]     MIC  0.002 µg/mL
4  CCn1cc(C(=O)O)c(=O)c2cc(F)c(N3CCNCC3)cc21 [NORFLOXACIN]     MIC  0.016 µg/mL
5  CC[n+]1c(-c2ccccc2)c2cc(N)ccc2c2ccc(N)cc21.[Br-] [HOMIDIUM BROMIDE]     MIC     64 µg/mL

###

Measured MIC, listed per entry for reference.
# System: Escherichia coli
# ASSAY_OVERVIEW: Antibacterial activity against Escherichia coli 1540 isolate by […]
# Format: functional

COMPOUND	SYSTEM_TESTED	MIC
O=C(N[C@H](CO)[C@H](O)c1ccc([N+](=O)[O-])cc1)C(Cl)Cl [CHLORAMPHENICOL]	Escherichia coli	> 256 mg/L
CO/N=C(\C(=O)N[C@@H]1C(=O)N2C(C(=O)O)=C(COC(C)=O)CS[C@H]12)c1csc(N)n1 [CEFOTAXIME]	Escherichia coli	32 mg/L
NC[C@H]1O[C@H](O[C@H]2[C@H](O)[C@@H](O[C@H]3O[C@H](CO)[C@@H](O)[C@H](N)[C@H]3O)[C@H](N)C[C@@H]2N)[C@H](N)C[C@@H]1O [TOBRAMYCIN]	Escherichia coli	> 512 mg/L
NC[C@H]1O[C@H](O[C@H]2[C@H](O)[C@@H](O[C@H]3O[C@H](CO)[C@@H](O)[C@H](N)[C@H]3O)[C@H](N)C[C@@H]2N)[C@H](O)[C@@H](O)[C@@H]1O [KANAMYCIN]	Escherichia coli	> 512 mg/L
CN(C)c1ccc(O)c2c1C[C@H]1C[C@H]3[C@H](N(C)C)C(O)=C(C(N)=O)C(=O)[C@@]3(O)C(O)=C1C2=O [MINOCYCLINE]	Escherichia coli	16 mg/L
CC1(C)S[C@@H]2[C@H](NC(=O)[C@H](N)c3ccccc3)C(=O)N2[C@H]1C(=O)O [AMPICILLIN]	Escherichia coli	> 256 mg/L
O=C(O)c1cn(C2CC2)c2cc(N3CCNCC3)c(F)cc2c1=O [CIPROFLOXACIN]	Escherichia coli	> 32 mg/L

###

# Test system: Escherichia coli
# ASSAY_OVERVIEW: Antibacterial activity against Escherichia coli C600Rif in presence of 50 ug/ml efflux pump inhibitor phenyl-arginine-beta-naphthylamide by Etest
# Assay type: functional
METRIC: MIC (µg/mL)

> print(dat)
                                   compound  metric  unit.name  value
1  CCn1cc(C(=O)O)c(=O)c2cc(F)c(N3CCNCC3)cc21     MIC      µg/mL  0.032
2           CCn1cc(C(=O)O)c(=O)c2ccc(C)nc21     MIC      µg/mL    1.5
3  COc1c(N2CCNC(C)C2)c(F)cc2c(=O)c(C(=O)O)cn(C3CC3)c12 (stereo not given)     MIC      µg/mL  0.016
4  CC[n+]1c(-c2ccccc2)c2cc(N)ccc2c2ccc(N)cc21.[Br-] [HOMIDIUM BROMIDE]     MIC      µg/mL    128
5  COc1c(N2C[C@@H]3CCCN[C@@H]3C2)c(F)cc2c(=O)c(C(=O)O)cn(C3CC3)c12     MIC      µg/mL  0.032

Recorded values, source ChEMBL document CHEMBL1156417.
